The origin of these recorded values is the nanobody polyreactivity screen of Harvey et al. (2022).

Experiment: yeast display, Sf9 membrane polyspecificity reagent, FACS + sequencing; frameworks hold sequencing errors
assayMetric: polyreactivity (PSR sort gate)

INSERT INTO measurements (seq, assaymetric, resultvalue) VALUES
  ('QVQLVESGGGLVQAGGSLRLSCAASGSTFSYYTMGWYRQATGKERELVAAISGSGGSTYYADSVKGRFTISRDNAKNTVYLQMKSLKPEDTAVYYCAALRAGSKCFDFWGQGTQVTVSS', 'polyreactivity (PSR sort gate)', 'high polyreactivity'),
  ('QVQLVESGGGIVQAGGSLRLSCAASGRTFRRYVMGWYRQAPGKERELVAAITVSGGNTYYADSVKGSFTISRDNAKNTVYLQMNSLKPEDTAVYYCNADAGAIYYRRYHFYYWGQGTQVTVSS', 'polyreactivity (PSR sort gate)', 'low polyreactivity'),
  ('QVQVVESGGGLVQAVGSLRLSCAASGSTLSDNAMGWYRQAPGKERELFAAISESGGSTYYADSVKGRFTISRDNAKNTVYLQMNSQKPEDTAVSYCNAVYLSGPFHVSHDYWGQGTQVTVSA', 'polyreactivity (PSR sort gate)', 'low polyreactivity'),
  ('QVQLVESGGGLVQAGGSLRLSCADSGRNFYIYAMGWYRKAPGKERELVAAISISGSTYYADSVKGRFTISRDNAKNTVFLQMNSLKPEDTAVYYCAARDPGVAVGAAFDSWGQGTQVTVSS', 'polyreactivity (PSR sort gate)', 'low polyreactivity'),
  ('QVQLVESGGGLVQAGGSLRLICAASGYIFYAYALGWYRQAPGKERELVAAITDNGVSTFYADSVKGRFTISRDNAKNTVYLHMKSLKPEETAVYYCATSSTHSRGDEYWGQGTQVTVSS', 'polyreactivity (PSR sort gate)', 'low polyreactivity'),
  ('QVQLVESGGGLVQAGGSLRLSCAASGLTFYYNAMGWYRPAPGKERELVAAITWSTDSTYYADSVKGRFTISRDNAKNTVYLQMNSLKPEDTAVYYCAAAVDAFTNKQYYYWGQGTQVTVSS', 'polyreactivity (PSR sort gate)', 'low polyreactivity'),
  ('QVQLVESGGGLVQAGGSLRLSCAASGSIFGYYAMGWYRLAPGKERELVAAINWRGTSTYYADSVKGRFTISRDNAKNTVYLQMISLKPEDTAVYYCAARRSVGGYGYWGQGTQVTVSS', 'polyreactivity (PSR sort gate)', 'high polyreactivity'),
  ('QVQLVESGGGLVQAGGSLRLSCSASGLIFPSNTMGWYRQAPGTERELVAAITFSGDSTNYADSVKGRFTISRDNAKNTVYVQMNSLKPEDTAVYYCAASQVSDTTRFGYWGQGTQVTVSS', 'polyreactivity (PSR sort gate)', 'low polyreactivity');

Task item: Name the recorded polyreactivity (PSR sort gate) of the item QVQLVESGGGLVQAGGSLRLSWAASGRIIHYNVMGWYRQPPGKERDLVAAIRGGGRSTYYADSVKGRFTISRDNAKNTVYLQMNSLKPEDTAVYYCAKSLSQNTYYHQGYYDDNYWGQGTQVTVSS in your answer.
Reply: low polyreactivity
